biological target: VEGF-R2 (Homo sapiens, UniProt P35968)
Sequence (P35968 20-1356): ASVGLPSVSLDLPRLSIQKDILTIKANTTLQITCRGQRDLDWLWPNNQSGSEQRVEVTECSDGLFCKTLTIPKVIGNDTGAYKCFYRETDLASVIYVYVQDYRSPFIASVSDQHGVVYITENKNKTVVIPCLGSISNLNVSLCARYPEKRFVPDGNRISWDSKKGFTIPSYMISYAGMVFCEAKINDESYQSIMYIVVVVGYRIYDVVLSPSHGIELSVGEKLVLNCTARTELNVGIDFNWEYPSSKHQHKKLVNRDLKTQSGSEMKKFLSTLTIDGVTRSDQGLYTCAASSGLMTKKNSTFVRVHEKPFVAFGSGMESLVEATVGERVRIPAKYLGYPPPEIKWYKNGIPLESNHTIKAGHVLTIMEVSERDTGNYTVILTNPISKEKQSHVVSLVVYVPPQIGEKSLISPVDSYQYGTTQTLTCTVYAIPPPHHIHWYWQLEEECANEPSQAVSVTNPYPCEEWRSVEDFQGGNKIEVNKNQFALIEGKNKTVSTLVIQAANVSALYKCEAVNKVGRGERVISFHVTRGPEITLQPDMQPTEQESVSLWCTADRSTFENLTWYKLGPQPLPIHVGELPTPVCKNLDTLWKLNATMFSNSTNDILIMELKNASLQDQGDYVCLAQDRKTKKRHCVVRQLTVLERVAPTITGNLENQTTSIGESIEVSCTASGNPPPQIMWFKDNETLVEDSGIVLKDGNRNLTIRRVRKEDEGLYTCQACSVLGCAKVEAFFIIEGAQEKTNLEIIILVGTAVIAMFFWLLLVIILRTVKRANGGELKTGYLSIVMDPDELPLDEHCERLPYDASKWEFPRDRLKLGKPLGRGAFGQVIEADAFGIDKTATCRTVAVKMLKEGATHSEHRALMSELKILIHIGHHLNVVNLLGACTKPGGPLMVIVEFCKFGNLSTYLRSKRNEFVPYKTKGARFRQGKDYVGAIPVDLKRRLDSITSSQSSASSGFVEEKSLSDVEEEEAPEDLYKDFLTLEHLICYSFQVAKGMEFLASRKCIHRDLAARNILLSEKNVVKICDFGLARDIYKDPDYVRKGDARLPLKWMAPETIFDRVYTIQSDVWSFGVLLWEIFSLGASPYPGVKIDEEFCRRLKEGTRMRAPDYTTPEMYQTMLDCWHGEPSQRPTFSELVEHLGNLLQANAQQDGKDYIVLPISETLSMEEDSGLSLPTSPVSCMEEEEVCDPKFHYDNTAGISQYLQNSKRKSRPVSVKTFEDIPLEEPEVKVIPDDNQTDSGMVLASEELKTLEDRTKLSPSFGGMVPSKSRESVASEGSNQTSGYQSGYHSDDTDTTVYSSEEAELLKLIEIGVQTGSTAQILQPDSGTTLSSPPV
measured.metric: pIC50
Conceptually, pIC50 converts a concentration in mol/L into minus its log10.

Reported pIC50 of COc1cc2c(Oc3ccc(NC(=O)C4(C(=O)Nc5ccc(F)cc5)CC4)cc3F)ccnc2cc1OCCCCCC(=O)O [crystalline form AB] : 9.42

====

experiment: Bioavailability analysis (pharmacokinetics) of crystalline forms in mice; format: in vivo; conditions: mouse, plasma, po, 10 mg/kg, gavage, suspension in CMC-Na, mean, read-out: Tmax
measured.metric: Tmax (h)
Hi! Could you send only the number? It should be in h, unit omitted.

Reported Tmax of COc1cc2c(Oc3ccc(NC(=O)C4(C(=O)Nc5ccc(F)cc5)CC4)cc3F)ccnc2cc1OCCCCCC(=O)O [crystalline form AB] : 1.33
